# TEST_SYSTEM: monkey IGF-1R (on COS-7 cells) (African green monkey)
# PROTOCOL_TEXT: cell-based or functional assay

{"BINDER": "m214F8 (antibody, V domains shown, murine mAb, hybridoma CNCM I-4775, group G2) VH: QVQLQQSGSELVKPGASVKLSCKASGYTFTSYYIHWVKQRPGQGLEWIGWIWPGDGSTKYNERFKGKTTLTADKSSSTAYMFLSSLTSEDSAVYFCASPMITPNYAMDYWGQGASVTVSS VL: DIQMTQTTSSLSASLGDRVTFSCRASQDISKYLNWYQQQPDGTIKLLIYYTSRLHSGVPSRFSGRGSGTDYSLTITNLEQEDIATYFCQQGSALPYTFGGGTKLEIK", "ΔMFI (MFI)": 76}
{"BINDER": "m219D6 (antibody, V domains shown, murine mAb, hybridoma CNCM I-4736, group G2) VH: QVQLQQSGPELVKPGDSVKMSCKASGYSFTSYFIHWVKQRPGQGLEWIGWIWPGDGSTKYNEKFKGKTTLTTDKSSSTAYMFLNSLTSEDSAVYFCASPMITPNYAMDYWGQGASVTVSS VL: DIQMTQTTSSLSASLGDRVTISCRASQDISKYLNWYQQQPDGTVKLLIYYTSRLHSGVPSRFSGRGSGTDYSLTISNLEQEDIATYFCQQGSTLPYTFGGGTKLEIK", "ΔMFI (MFI)": 80}

Data origin, for the record: patent US20170267766A1
